Experiment: physchem
Details: ph 1.2 solution
quantityMeasured: remaining at 12 h (%)

compound: CC1=C[C@H](O)CC(C)(C)[C@H]1/C=C/C(C)=C/C=C/C(C)=C/C=C/C=C(C)/C=C/C=C(C)/C=C/C1=C(C)C[C@@H](O)CC1(C)C [루테인]
unitAbbreviation: %
reading: 14.7
